Recorded values, source PubChem BioAssay AID1918957.

System: NCI-H1876 complex spheroid viability
Assay: Anticancer human tumor NCI-H1876 cell line growth inhibition [LSD1];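 also: spheroids exposed to compounds for one week before readout; 100% = DMSO vehicle-treated spheroids so lower means fewer viable cells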
Conditions: second compound 1 µM; first compound 10 µM; hits give low values
For each record, write down the corresponding viability, T/C.

Examples with their reported viability, T/C follow.
{"MOLECULE": "CC1COCCN1c1cc(C2(S(C)(=N)=O)CC2)nc(-c2ccnc3[nH]ccc23)n1 (centres undefined) + NC1CCC(NC2CC2c2ccccc2)CC1", "READING": "30.7%"}
{"MOLECULE": "CC(C)c1c(-c2ccccc2)nc2c(C#N)c[nH]n2c1=O + NC1CCC(NC2CC2c2ccccc2)CC1", "READING": "30.7%"}
{"MOLECULE": "O=C(c1cc(Cc2n[nH]c(=O)c3ccccc23)ccc1F)N1CCN(C(=O)C2CC2)CC1 + NC1CCC(NC2CC2c2ccccc2)CC1", "READING": "35.8%"}

Next molecule, viability, T/C to be filled in.
# molecule COc1ccc([C@@H](O)c2cc(-c3ncnc4cc(N5CCOCC5)ccc34)c(F)cc2Cl)nn1 + NC1CC1c1ccc(-c2cccc(O)c2)cc1 ; its viability, T/C = 9%
